tested on: SMMC-7721; test: Cytotoxicity against human SMMC7721 cells after 48 hrs by MTT assay; type: functional, cell-based; settings: SMMC-7721, 48 h
Recorded IC50 values for a group of compounds are listed next.

>>> obsvalue("C=C1C(=O)[C@@]23[C@@H]4C[C@@H]5C(C)(C)CCC[C@@]5([C@@H](OC)O4)[C@@H]2[C@@H](O)C[C@@H]1[C@H]3O")
"4.4 µM"

Inquiry: Look up and state reported IC50 for C=C1[C@@H]2CC[C@H]3[C@]45CCC[C@@](C)(COC(C)=O)[C@H]4[C@H](O)[C@](O)(OC5)[C@]3(C2)[C@@H]1O
Reply text: > 10 µM

Inquiry: Indicate its recorded IC50; the compound in question is C=C1C(=O)[C@@]23[C@H](O)C[C@@H]4C(C)(C)CCC[C@@]4(COC(C)=O)[C@@H]2[C@@H](O)[C@H](O)[C@@H]1[C@H]3O
Reply text: > 10 µM

Inquiry: Entry C=C1C(=O)[C@@]23[C@H](O)C[C@@H]4C(C)(C)CCC[C@@]4(C)[C@@H]2[C@@H](O)C[C@@H]1[C@H]3O needs its IC50 filled in; supply it.
Reply text: 5.5 µM

Inquiry: Query IC50 for C=C1[C@@H]2C[C@@H](O)[C@@H]3[C@](C2)(C(=O)O[C@H]2CC[C@@]4(C)CO[C@H]5OC[C@]23[C@H]54)[C@@H]1O
Reply text: > 10 µM

Inquiry: Give IC50 for the following compound: C=C1C(=O)[C@@]23[C@@H]4C[C@@H]5C(C)(C)CCC[C@@]5([C@@H](O)O4)[C@@H]2[C@@H](O)C[C@@H]1[C@H]3O
Reply text: 6.2 µM

Inquiry: Report measured IC50; entry is C=C1C(=O)[C@@]23[C@H](O)C[C@@H]4[C@@](C)(CO)CCC[C@@]4(COC(C)=O)[C@@H]2CC[C@@H]1[C@H]3O
Reply text: > 10 µM

Inquiry: Give the value of IC50 reported for the following: CO[C@@H]1OC[C@]2(C)CCC[C@]3(COC(=O)[C@@]45C[C@@H](CC[C@H]43)[C@H](C)C5=O)[C@H]12
Reply text: > 10 µM

---

tested on: SMMC-7721; experiment: Cytotoxicity against human SMMC7721 cells after 48 hrs by MTT assay; format: functional, cell-based; details: SMMC-7721, 48 h
Form field: pIC50 (one value per entry).
The read-out pIC50 is expressed as -log10 of concentration in moles per litre.

Inquiry: State recorded pIC50 with SMMC-7721, entry C=C1C(=O)[C@@]23[C@@H]4C[C@@H]5C(C)(C)CCC[C@@]5([C@@H](OCC)O4)[C@@H]2[C@@H](O)C[C@@H]1[C@H]3O , no comment.
Reply text: 5.46

Inquiry: Provide pIC50, recorded with SMMC-7721, of C=C1C(=O)[C@@]23[C@@H]4C[C@@H]5C(C)(C)CCC[C@@]5([C@@H](OC)O4)[C@@H]2[C@@H](OC(C)=O)C[C@@H]1[C@H]3O [ISOLUSHININ D]
Reply text: 5.33

Inquiry: Report pIC50 from SMMC-7721 testing of C=C1C(=O)[C@@]23[C@H](O)C[C@@H]4C(C)(C)CCC[C@@]4(COC(C)=O)[C@@H]2[C@@H](O)C[C@@H]1[C@H]3O [FLEXICANLIN A]
Reply text: 5.00

---

system: SMMC-7721; assay: Cytotoxicity against human SMMC7721 cells after 48 hrs by MTT assay; type: functional, cell-based; details: SMMC-7721, 48 h
assayEndpoint: IC50

Inquiry: Return the recorded IC50 value; entry: C=C1C(=O)[C@]23[C@H](O)[C@H]1CC[C@H]2[C@@]12CO[C@]3(O)[C@@H](O)[C@@H]1C(C)(C)CC[C@@H]2O
Reply text: > 10 µM

Inquiry: Provide IC50 value for the following compound: C=C1C(=O)[C@]23C[C@H]1C[C@@H](O)[C@H]2[C@@]1(CCC[C@@]2(C)COC(=O)[C@H]21)COC3=O
Reply text: > 10 µM

Inquiry: Give the measured IC50 for C=C1C(=O)[C@@]23[C@H](O)C[C@@H]4C(C)(C)CCC[C@@]4(CO)[C@@H]2[C@@H](O)C[C@@H]1[C@H]3O
Reply text: > 10 µM

---

tested on: SMMC-7721; assay: Cytotoxicity against human SMMC7721 cells after 48 hrs by MTT assay; format: functional, cell-based; conditions: SMMC-7721, 48 h
This listing pairs compounds with measured IC50.

>>> obsvalue("CC(=O)O[C@H]1C(=O)[C@@]2(C)[C@H]([C@H](OC(=O)c3ccccc3)[C@]3(O)C[C@H](OC(=O)[C@H](O)[C@@H](NC(=O)c4ccccc4)c4ccccc4)C(C)=C1C3(C)C)[C@]1(OC(C)=O)CO[C@@H]1C[C@@H]2O")
"< 0.008 µM"
>>> obsvalue("C=C1C(=O)[C@@]23[C@@H]4C[C@@H]5C(C)(C)[C@H](O)CC[C@@]5([C@@H](OC)O4)[C@@H]2[C@@H](O)C[C@@H]1[C@H]3O")
"> 10 µM"

Now turn to the next compound.
Inquiry: GET IC50 | system: SMMC-7721 | item: C=C1[C@@H]2CC[C@H]3[C@]45CC[C@@H]6OC4O[C@@H](C[C@@H]5C6(C)C)[C@]3(C2)[C@@H]1O
Reply text: > 10 µM
